system: P. falciparum female gametocytes; assay: P. falciparum Dual Gamete Formation Assay (PfDGFA), female readout (Pfs25-positive female gametes); type: cell-based, Plasmodium falciparum NF54; conditions: number of replicates with >50% inhibition in the female readout, 2µM
Reported property: HitlevelF
Enter the number alone.

Sample answers from the record:
1) FC(F)(F)c1ccc2[nH]c(-c3ccc(-c4cccc(CN5CCC(CCN6CCCCC6)CC5)c4)cc3)nc2c1.O=C(O)C(F)(F)F :: 2
2) CC(=NNC(=S)NCCc1ccccc1)c1ccccn1 :: 1
3) CC(C)CNCc1ccc(-c2cccc(CN(CCN(C)C)C(=O)CCC3CCCC3)c2)cc1.O=C(O)C(F)(F)F :: 0
4) COc1ccc(N2CCN(CCCCNCc3ccc(NC(=O)c4cc(Cl)cc(Cl)c4)cc3)CC2)c(OC)c1 :: 0
5) COc1ccc(-c2cnc(N)c(-c3ccc(C(N)=O)cc3)c2)cc1OC :: 0
6) CC(C)S(=O)(=O)N1CCN(Cc2ccc3c(c2)nc(NC(=O)c2ccsc2)n3C[C@H](O)c2ccccc2)CC1 :: 0

Please look at the following molecule next.
The molecule "CN1CCN(c2cc3c(cc2Cl)CCN3C(=O)Nc2ccc(NC(=O)c3ccc(C(F)(F)F)cc3)cc2)CC1.Cl" showed HitlevelF equal to 3

----------
tested on: P. falciparum male gametocytes; experiment: P. falciparum Dual Gamete Formation Assay (PfDGFA), male readout (exflagellation); format: cell-based, Plasmodium falciparum NF54; conditions: Plasmodium falciparum; 2µM, 24h preincubation with gametocytes; replicate R2; read-out: % inhibition male (individual replicates) R2
The compounds listed here are annotated with their inhibition at 2 µM.
State the answer as a number, implicitly in %.

Sample answers from the record:
1. CCS(=O)(=O)Nc1ccc2c(c1)/C(=C(/Nc1ccc(CN3CCCCC3)cc1)c1ccccc1)C(=O)N2 [TCMDC-135395] :: 89.8
2. CCCCNS(=O)(=O)c1ccc(NC(=O)c2cc([N+](=O)[O-])ccc2Cl)cc1 [TCMDC-124345] :: 102
3. O=c1c(Br)ccccc1Br [TCMDC-142246] :: 102

// compound C=CCN(C(=O)c1ccc(Cl)c([N+](=O)[O-])c1)c1nc(-c2ccccc2)cs1 [TCMDC-124436] , assay P. falciparum male gametocytes, inhibition at 2 µM value: 98.5

// compound Cc1ccc(C(C(=O)Nc2ccc(N3CCNCC3)c(Cl)c2)c2ccccc2)cc1 (stereo not shown) [TCMDC-134292] , assay P. falciparum male gametocytes, inhibition at 2 µM value: 85.1

// compound CN1CCN(c2ccc(Nc3ncc(Cl)c(Nc4cccnc4C(N)=O)n3)cc2)CC1.Cl [TCMDC-134164] , assay P. falciparum male gametocytes, inhibition at 2 µM value: 93.6

// compound Cc1ccc(S(=O)(=O)N(CCCNCc2cccc(O)c2)c2ccccc2)cc1 [TCMDC-138022] , assay P. falciparum male gametocytes, inhibition at 2 µM value: 101

// compound Cc1cccc(Nc2nc(N[C@@H]3CCCNC3)nc3cc[nH]c(=O)c23)c1.O=C(O)C(F)(F)F [TCMDC-134835] , assay P. falciparum male gametocytes, inhibition at 2 µM value: 100

// compound CN(C)c1ccnc2ccc(NC(=O)Nc3ccnc4ccccc34)cc12 [TCMDC-139749] , assay P. falciparum male gametocytes, inhibition at 2 µM value: 94.7

// compound c1ccc(-c2nc(Nc3nc4ccccc4[nH]3)[nH]c2-c2ccccc2)cc1 [TCMDC-139099] , assay P. falciparum male gametocytes, inhibition at 2 µM value: 98.5
